Below are Kd measurements against Receptor-interacting serine/threonine-protein kinase 3 (Homo sapiens) drawn from the literature.

{"COMPOUND": "COC[C@H](Oc1cc(-c2nn(C)c3c(-c4cnn(C5CCOCC5)c4)cnc(N)c23)ccc1NS(=O)(=O)C(F)F)c1ccc(F)cc1", "RESULT": "> 10 µM"}
{"COMPOUND": "CCS(=O)(=O)Nc1ccc(-c2n[nH]c(Nc3cnccn3)c2C(N)=O)c(OC)c1", "RESULT": "> 30 µM"}
{"COMPOUND": "Cc1cn(C)nc1Nc1[nH]nc(-c2ccc(NS(=O)(=O)C(F)F)c(O[C@@H](C)c3ccc(F)cc3)c2)c1C(N)=O", "RESULT": "> 30 µM"}

[ask] Lookup: Kd / Receptor-interacting serine/threonine-protein kinase 3 (Homo sapiens) / CCS(=O)(=O)Nc1ccc(-c2n[nH]c(Nc3ccccn3)c2C(N)=O)cc1OCc1ccc(F)cc1
[reply] > 30 µM

[ask] Lookup: Kd / Receptor-interacting serine/threonine-protein kinase 3 (Homo sapiens) / C[C@H](Oc1cc(-c2nn(C)c3c(-c4cnc(N5CCCC5)nc4)cnc(N)c23)ccc1NS(=O)(=O)C(F)F)c1ccc(F)cc1
[reply] > 10 µM

[ask] Lookup: Kd / Receptor-interacting serine/threonine-protein kinase 3 (Homo sapiens) / C[C@@H](Oc1cc(-c2n[nH]c(Nc3cnccn3)c2C(N)=O)ccc1NS(=O)(=O)C(F)F)c1ccc(F)cc1
[reply] > 30 µM

###

Below are pKd measurements against Receptor-interacting serine/threonine-protein kinase 3 (Homo sapiens) drawn from the literature.
pKd: −log10 of the molar value.

Here are 8 compounds together with their reported answers.
{"COMPOUND": "C[C@H](Oc1cc(-c2cnn3c(-c4cnn(CCO)c4)cnc(N)c23)ccc1NS(=O)(=O)C(F)F)c1ccc(F)cc1", "STUDY TARGET": "Receptor-interacting serine/threonine-protein kinase 3 (Homo sapiens)", "pKd": "< 5.00"}
{"COMPOUND": "C[C@H](Oc1cc(-c2nn(C)c3c(C4=CCCN(C)C4)cnc(N)c23)ccc1NS(=O)(=O)C(F)F)c1ccc(F)cc1", "STUDY TARGET": "Receptor-interacting serine/threonine-protein kinase 3 (Homo sapiens)", "pKd": "< 5.00"}
{"COMPOUND": "C[C@H](Oc1cc(-c2nn(C)c3c(-c4cnn(CCC(F)(F)F)c4)cnc(N)c23)ccc1NS(=O)(=O)C(F)F)c1ccc(F)cc1", "STUDY TARGET": "Receptor-interacting serine/threonine-protein kinase 3 (Homo sapiens)", "pKd": "< 5.00"}
{"COMPOUND": "CCS(=O)(=O)Nc1ccc(-c2n[nH]c(Nc3cnccn3)c2C(N)=O)cc1OCC1CCN(C(C)=O)CC1", "STUDY TARGET": "Receptor-interacting serine/threonine-protein kinase 3 (Homo sapiens)", "pKd": "< 4.52"}
{"COMPOUND": "CCS(=O)(=O)Nc1ccc(-c2n[nH]c(Nc3ccnc(C)c3)c2C(N)=O)cc1", "STUDY TARGET": "Receptor-interacting serine/threonine-protein kinase 3 (Homo sapiens)", "pKd": "< 4.52"}
{"COMPOUND": "C[C@H](Oc1cc(-c2nn(C)c3c(-c4ccc5c(c4)n(C)c(=O)n5C)cnc(N)c23)ccc1NS(=O)(=O)C(F)F)c1ccc(F)cc1", "STUDY TARGET": "Receptor-interacting serine/threonine-protein kinase 3 (Homo sapiens)", "pKd": "< 5.00"}
{"COMPOUND": "C[C@H](Oc1cc(-c2nn(C)c3c(-c4cnn(CCN5CCN(C)CC5)c4)cnc(N)c23)ccc1NS(=O)(=O)C(F)F)c1ccc(F)cc1", "STUDY TARGET": "Receptor-interacting serine/threonine-protein kinase 3 (Homo sapiens)", "pKd": "< 5.00"}
{"COMPOUND": "C[C@H](Oc1cc(-c2nn(C)c3c(-c4cnn(C5CCC(N(C)C)C5)c4)cnc(N)c23)ccc1NS(=O)(=O)C(F)F)c1ccc(F)cc1 (stereo partly shown)", "STUDY TARGET": "Receptor-interacting serine/threonine-protein kinase 3 (Homo sapiens)", "pKd": "< 5.00"}

[ask] Lookup: pKd / Receptor-interacting serine/threonine-protein kinase 3 (Homo sapiens) / CCS(=O)(=O)Nc1ccc(-c2n[nH]c(Nc3cnccn3)c2C(N)=O)cc1OC1CCCc2ccccc21 (stereo not shown)
[reply] < 4.52

[ask] Lookup: pKd / Receptor-interacting serine/threonine-protein kinase 3 (Homo sapiens) / NC(=O)c1c(-c2ccc(NS(=O)(=O)Cc3cccc(C(F)(F)F)c3)cc2)n[nH]c1Nc1cnccn1
[reply] < 4.52

[ask] Lookup: pKd / Receptor-interacting serine/threonine-protein kinase 3 (Homo sapiens) / C[C@H](Oc1cc(-c2nn(C)c3c(-c4cnn(C5CC6(CNC6)C5)c4)cnc(N)c23)ccc1NS(=O)(=O)C(F)F)c1ccc(F)cc1
[reply] < 5.00

[ask] Lookup: pKd / Receptor-interacting serine/threonine-protein kinase 3 (Homo sapiens) / NC(=O)c1c(-c2ccc(NS(=O)(=O)CC(F)(F)F)cc2)n[nH]c1Nc1cnccn1
[reply] < 4.52

[ask] Lookup: pKd / Receptor-interacting serine/threonine-protein kinase 3 (Homo sapiens) / CCS(=O)(=O)Nc1ccc(-c2n[nH]c(Nc3ccccn3)c2C(N)=O)cc1OCc1cccc(Cl)c1
[reply] < 4.52

[ask] Lookup: pKd / Receptor-interacting serine/threonine-protein kinase 3 (Homo sapiens) / C[C@H](Oc1cc(-c2nn(C)c3c(-c4cnn(CCN(C)C)c4)cnc(N)c23)ccc1NS(=O)(=O)C(F)F)c1ccc(F)cc1
[reply] < 5.00
